MEASUREMENT_TARGET: calcium channel (Cavia porcellus, UniProt A0A286X7I0)
Construct: guinea-pig skeletal muscle membranes
Sequence (A0A286X7I0 1-1867): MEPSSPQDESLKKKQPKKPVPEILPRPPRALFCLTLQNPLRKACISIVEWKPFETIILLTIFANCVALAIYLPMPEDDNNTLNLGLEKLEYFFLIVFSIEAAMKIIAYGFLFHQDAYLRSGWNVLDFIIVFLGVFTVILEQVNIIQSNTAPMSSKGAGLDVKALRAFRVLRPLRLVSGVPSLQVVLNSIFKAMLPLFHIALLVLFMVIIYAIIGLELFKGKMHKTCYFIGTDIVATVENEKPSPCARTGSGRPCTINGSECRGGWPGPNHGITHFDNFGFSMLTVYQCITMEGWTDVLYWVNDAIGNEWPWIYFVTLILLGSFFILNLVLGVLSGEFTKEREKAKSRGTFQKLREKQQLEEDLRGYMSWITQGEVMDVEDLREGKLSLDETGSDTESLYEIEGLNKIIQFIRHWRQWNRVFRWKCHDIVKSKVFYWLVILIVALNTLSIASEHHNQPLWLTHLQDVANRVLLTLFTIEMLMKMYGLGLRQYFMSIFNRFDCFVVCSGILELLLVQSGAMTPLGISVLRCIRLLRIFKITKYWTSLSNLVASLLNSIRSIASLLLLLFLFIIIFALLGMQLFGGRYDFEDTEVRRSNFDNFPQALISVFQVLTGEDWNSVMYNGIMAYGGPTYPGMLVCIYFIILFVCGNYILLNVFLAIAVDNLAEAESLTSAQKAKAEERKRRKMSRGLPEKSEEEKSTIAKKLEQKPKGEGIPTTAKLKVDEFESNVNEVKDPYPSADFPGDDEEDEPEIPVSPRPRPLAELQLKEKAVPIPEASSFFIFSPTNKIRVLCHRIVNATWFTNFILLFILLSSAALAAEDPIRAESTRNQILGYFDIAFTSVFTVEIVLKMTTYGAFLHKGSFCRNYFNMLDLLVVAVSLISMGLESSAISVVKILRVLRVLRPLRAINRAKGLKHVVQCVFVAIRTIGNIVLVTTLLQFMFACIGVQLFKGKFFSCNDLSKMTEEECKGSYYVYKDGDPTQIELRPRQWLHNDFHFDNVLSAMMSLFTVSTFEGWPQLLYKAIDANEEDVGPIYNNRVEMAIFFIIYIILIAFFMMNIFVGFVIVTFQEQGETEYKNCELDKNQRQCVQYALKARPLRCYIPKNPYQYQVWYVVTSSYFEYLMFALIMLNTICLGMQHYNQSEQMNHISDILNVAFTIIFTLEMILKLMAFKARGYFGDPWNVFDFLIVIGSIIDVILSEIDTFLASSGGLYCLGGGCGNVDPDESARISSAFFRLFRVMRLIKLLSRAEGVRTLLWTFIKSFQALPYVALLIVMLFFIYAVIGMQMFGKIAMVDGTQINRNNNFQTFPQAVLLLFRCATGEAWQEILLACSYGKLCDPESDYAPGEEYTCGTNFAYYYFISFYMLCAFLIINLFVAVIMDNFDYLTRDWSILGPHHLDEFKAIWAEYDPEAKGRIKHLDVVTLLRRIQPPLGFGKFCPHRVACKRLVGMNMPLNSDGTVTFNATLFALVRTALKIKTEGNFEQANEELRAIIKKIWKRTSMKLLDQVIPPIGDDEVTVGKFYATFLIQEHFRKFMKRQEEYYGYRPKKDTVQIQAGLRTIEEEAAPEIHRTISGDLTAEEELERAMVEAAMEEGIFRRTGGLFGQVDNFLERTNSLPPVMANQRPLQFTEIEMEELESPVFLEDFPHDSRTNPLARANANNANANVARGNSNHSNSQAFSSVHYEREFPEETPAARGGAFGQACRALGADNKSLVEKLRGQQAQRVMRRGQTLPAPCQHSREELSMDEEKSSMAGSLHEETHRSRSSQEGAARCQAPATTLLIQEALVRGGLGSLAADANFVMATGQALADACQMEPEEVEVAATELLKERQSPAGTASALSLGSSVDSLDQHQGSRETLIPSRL
EXPERIMENTAL_DETAILS: Affinity to the calcium channel: inhibition of specific (S)-3H-devapamil binding to guinea-pig skeletal muscle membranes
TEST_SETTINGS: 1 nM (S)-3H-devapamil, pH 7.4, 20° C., 60 minutes, read-out: Test 3 Ki
PROPERTY: Ki (nM)
Respond with the bare value in nM.

COMPOUND: OC(COc1ccc(F)cc1)CN1CCN(CCCC(c2ccc(F)cc2)c2ccc(F)cc2)CC1 (single isomer, unassigned; (+)) [Example 30]
MEASUREMENT_TARGET: calcium channel (Cavia porcellus, UniProt A0A286X7I0)
PROPERTY: Ki
RESULT_VALUE: 10

COMPOUND: N#Cc1ccccc1OCC(O)CN1CCN(CCCC(c2ccc(F)cc2)c2ccc(F)cc2)CC1 (stereo not drawn)
MEASUREMENT_TARGET: calcium channel (Cavia porcellus, UniProt A0A286X7I0)
PROPERTY: Ki
RESULT_VALUE: 10

Now, please, on to the next compound.
// fetch Ki given entry OC(COc1ccccc1Cl)CN1CCN(CCCC(c2ccc(F)cc2)c2ccc(F)cc2)CC1 (stereo not drawn) 10
